target: GLP-1 receptor (UniProt P43220 24-463, limits assumed); test: cell-based or functional assay
Numbered stars: 1 amine (or outer) side, 2 acyl side, 3 side chain; on linkers, the order of the positions; unused ones are H or OH. Square brackets hold non-standard residues; d marks the D form. Side chains are listed from the residue outwards. Ends that are not written are not given here. * marks the point of attachment. γGlu = O=C(O)[C@H](CCC(=O)[*:2])N[*:1]; Palmitoyl = CCCCCCCCCCCCCCCC(=O)*; Myristoyl = CCCCCCCCCCCCCC(=O)*; Aib = CC(C)(N)C(=O)O
EXPERIMENTAL_ENDPOINT: EC50 at GLP-1 Receptor (nM)
Expressed in nM, but write only the number.

Please review the entries below; each comes with its answer.
>>> df
                                     binder  numeric_result
0  H[Aib]QGTFTSDK([γGlu-γGlu-Myristoyl])SKYLD[Aib]RRAQDFVC(PEG 40 kDa)WLMNT-NH2 [Peptide 78* (Table 10)]           0.103
1  H[Aib]QGTFTSDK([γGlu-γGlu-Palmitoyl])SKYLD[Aib]RRAQDFVQWLMNT-NH2 [Peptide 83 (Table 10)]           0.043
2  H[Aib]QGTFTSDK([Pro-Pro-Palmitoyl])SKYLD[Aib]RRAQDFVQWLMNT-NH2 [Peptide 87 (Table 10)]           0.009
3  H[Aib]QGTFTSDK([Ala-Ala-Palmitoyl])SKYLD[Aib]RRAQDFVQWLMNT-NH2 [Peptide 82 (Table 10)]           0.108
4  H[Aib]QGTFTSDK(Myristoyl)SKYLD[Aib]RRAQDFVC(PEG 40 kDa)WLMNT-NH2 [Peptide 77* (Table 10)]            1.46

# input Returns the measured EC50 at GLP-1 Receptor for the input binder. Input: H[Aib]QGTFTSDK([Ala-Ala-Palmitoyl])SKYLD[Aib]RRAQDFVC(PEG 40 kDa)WLMNT-NH2 [Peptide 79* (Table 10)]
# output 0.055

# input Returns the measured EC50 at GLP-1 Receptor for the input binder. Input: H[Aib]QGTFTSDK([Ala-Ala-Myristoyl])SKYLD[Aib]RRAQDFVC(PEG 40 kDa)WLMNT-NH2 [Peptide 81* (Table 10)]
# output 0.271

# input Returns the measured EC50 at GLP-1 Receptor for the input binder. Input: H[Aib]QGTFTSDK([γGlu-γGlu-Palmitoyl])SKYLD[Aib]RRAQDFVC(PEG 40 kDa)WLMNT-NH2 [Peptide 80* (Table 10)]
# output 0.042

Source listed as patent US20110190200A1.
